# Read-out: ABC Transporter (ABCC3), ABCC3 (gene 8714)
# Procedure summary: LTEA_HepaRG_ABCC3: Life Technologies and Expression Analysis (LTEA) Assay for ABC Transporter (ABCC3) using HepaRG (AID 2283462)
# Assay context: mRNA level, 48 h; actives raise or lower the signal
The source made the active and inactive calls. The calls were made as follows: active = hit-call score of the fitted dose curve at least 0.9, where 1 is the maximum; inactive = score below 0.9.
The reply should be one of these categories: active, inactive

[
  {
    "Smiles structure": "CC(=O)c1ccccc1",
    "Class label": "inactive"
  },
  {
    "Smiles structure": "COc1cc(C(C)C)c2c(c1)S(=O)(=O)N(COc1cc(=O)n3cccc(OCCN4CCCCC4)c3n1)C2=O",
    "Class label": "active"
  },
  {
    "Smiles structure": "c1ccc2ncccc2c1",
    "Class label": "inactive"
  },
  {
    "Smiles structure": "CCCCOC(=O)c1ccccc1",
    "Class label": "inactive"
  },
  {
    "Smiles structure": "CCCCCOC(C)=O",
    "Class label": "inactive"
  }
]

Per the records of this test, what outcome belongs to `Cn1cc[nH]c1=S` ?
inactive

====

# Procedure summary: ATG_VDRE_CIS: Attagene CIS-FACTORIAL HepG2 Assay for human Vitamin D Receptor Element (VDRE) (AID 2282968)
# Assay context: HepG2 VDRE cis-reporter transcription, actives raise or lower the signal
Active and inactive are the calls of the source. The calls were made as follows: active = hit-call score of the fitted dose curve at least 0.9, where 1 is the maximum; inactive = score below 0.9.
Entry note: the call must match one of True for active, False for inactive

[
  {
    "Smiles structure": "C[C@]12C=CC(=O)C=C1CC[C@H]1[C@@H]3C[C@@H](O)[C@](O)(C(=O)CO)[C@@]3(C)C[C@H](O)[C@@]12F",
    "Class label": "False"
  },
  {
    "Smiles structure": "Cc1nccn1-c1ccc(Sc2cccc(C3(C(N)=O)CCOCC3)c2)cc1",
    "Class label": "True"
  }
]

Kindly consider the entry below.
Dear all, I need the recorded test outcome for `OCCC(F)(F)C(F)(F)C(F)(F)C(F)(F)F` , thank you.
False

====

# Read-out: Interleukin-6 (IL6), IL6 (gene 3569)
# Procedure summary: BSK_CASM3C_IL6: BioMAP Diversity Plus: CASM3C Assay for Interleukin-6 (IL6) Biomarker Activity for (AID 2283040)
# Assay context: primary human coronary artery smooth muscle cells; actives raise or lower the signal
Activity calls are given as the source filed them. The calls were made as follows: active = hit-call score of the fitted dose curve at least 0.9, where 1 is the maximum; inactive = score below 0.9.
Respond using exactly one of the listed classes: active, inactive

These recorded examples may help you get a feel for the data.
[
  {
    "Compound": "CNC(C)=O",
    "Class label": "inactive"
  },
  {
    "Compound": "CC(C)CCCCCCOC(=O)C1CCCCC1C(=O)OCCCCCCC(C)C (stereo not drawn)",
    "Class label": "inactive"
  },
  {
    "Compound": "C=CN1CCCC1=O",
    "Class label": "inactive"
  },
  {
    "Compound": "Cc1nccn1-c1ccc(Sc2cccc(C3(C(N)=O)CCOCC3)c2)cc1",
    "Class label": "active"
  },
  {
    "Compound": "FC(F)=C(F)C(F)(F)C(F)(F)C(F)(F)C(F)(F)C(F)(F)C(F)(F)F",
    "Class label": "inactive"
  },
  {
    "Compound": "Cc1cccc(O)c1C",
    "Class label": "inactive"
  },
  {
    "Compound": "OC(CCl)CCl",
    "Class label": "inactive"
  },
  {
    "Compound": "OC(O)(C(F)C(O)(O)C(F)(F)F)C(F)(F)F",
    "Class label": "inactive"
  }
]

Hey, what did the test say about `C[Si](C)(C)C(F)(F)C(F)(F)C(F)(F)F` ?
inactive

Write down the call the test reported for this compound. Item: `OCCC(F)(F)C(F)(F)C(F)(F)C(F)(F)F`
inactive

Each compound tested received a call. Report the one for `OCc1ccccc1` .
inactive

Field: outcome | Entry: `O=S1(=O)CCCO1`
inactive

Query: recorded result category for `CCCOc1ccc(S(=O)(=O)N2CCN(CC)CC2)cc1-c1nc2c(CC)n(Cc3ccccn3)nc2c(=O)[nH]1` in this test
inactive
